System: Methicillin-resistant Staphylococcus aureus MRSA (ATCC BAA-1556)
Details: ATCC BAA-1556
Non-standard residues stand in square brackets, D forms with d. Residues, ends and D or L forms follow the SMILES beside them. 2Nal = N[C@@H](Cc1ccc2ccccc2c1)C(=O)O

compound	target-system	units	MRSA (ATCC BAA-1556) MIC
N=C(N)NCCC[C@@H]1NC(=O)[C@H](CCCNC(=N)N)NC(=O)[C@H](CCCNC(=N)N)NC(=O)[C@H](Cc2c[nH]c3ccccc23)NC(=O)[C@H](Cc2ccc3ccccc3c2)NC(=O)[C@H](Cc2ccc3ccccc3c2)NC(=O)[C@H](CCCNC(=N)N)NC1=O [IFX-031, c[Arg-Arg-Arg-Arg-NaI-NaI-Trp]] (cyclo(RRRR[2Nal][2Nal]W))	Methicillin-resistant Staphylococcus aureus MRSA (ATCC BAA-1556)	µg/mL	2
